Every entry's value here was drawn from PubChem BioAssay (NCI).

- Tested on: SK-MEL-2 melanoma
- experiment summary: NCI-60 one-dose screen, 48 h
- condition summary: 10 µM unless noted
The panel holds about 83,000 compounds, 20% with a hit somewhere; the sample as a whole holds those more often. The source made the active and inactive calls. How the source made its calls: active means growth percent below 10; inactive means the rest.
Allowed answers: active, inactive

Dear colleague, could you share the recorded outcome for `CCC1=C[C@@H]2CN(C1)Cc1c([nH]c3ccccc13)[C@@](C(=O)OC)(c1cc3c(cc1OC)N(C)[C@H]1[C@@](O)(C(=O)OC)[C@H](OC(C)=O)[C@]4(CC)[C@@H]5C[C@@H]5CN5CC[C@]31[C@@H]54)C2` when you have a moment? inactive

Entry `CN=c1ccc2nc3ccc(N)cc3sc-2c1` please active

Record: `COc1cc(C=C2C(=O)N(C)C(=O)N(C)C2=O)cc(CN2CCCCC2)c1O` inactive

Let us now turn to `CCCCc1c(CCC)c(=N)c2ccccc2n1C` inactive

Also `CCCCN1CCN(c2ccc3nc(-c4ccc5nc(-c6ccc(OC)c(OC)c6)[nH]c5c4)[nH]c3c2)CC1` ? active

What about this compound? `COc1ccc(-c2c(-c3ccc(OC)c(O)c3)cnc3ncnn23)cc1` inactive

Consider next the compound `O=C(O)CCC(=O)c1ccc(C2CCCCCC2)cc1` in the same way. inactive

Also `O=Cc1c(OCc2cnnn2CC(=O)Nc2ccc(Cl)cc2)ccc2ccccc12` , if possible. inactive

Here is the next compound: `O=Cc1c(OCc2cnnn2CC(=O)Nc2ccc(Br)cc2)ccc2ccccc12` inactive
